Data credit: patent US20170037028A1

target: GLUT1 (Homo sapiens); experiment: Indirect measurement of GLUT1 activity by quantification of intracellular ATP levels (glucose induced ATP increase); type: cell-based; parameters: endogenous in cells; host or cells: DLD1 or CHO-K1; conditions: read-out: IC50 regarding glucose induced ATP increase (GLUT1 inhibition)
Sequence (P11166 whole entry, species assumed): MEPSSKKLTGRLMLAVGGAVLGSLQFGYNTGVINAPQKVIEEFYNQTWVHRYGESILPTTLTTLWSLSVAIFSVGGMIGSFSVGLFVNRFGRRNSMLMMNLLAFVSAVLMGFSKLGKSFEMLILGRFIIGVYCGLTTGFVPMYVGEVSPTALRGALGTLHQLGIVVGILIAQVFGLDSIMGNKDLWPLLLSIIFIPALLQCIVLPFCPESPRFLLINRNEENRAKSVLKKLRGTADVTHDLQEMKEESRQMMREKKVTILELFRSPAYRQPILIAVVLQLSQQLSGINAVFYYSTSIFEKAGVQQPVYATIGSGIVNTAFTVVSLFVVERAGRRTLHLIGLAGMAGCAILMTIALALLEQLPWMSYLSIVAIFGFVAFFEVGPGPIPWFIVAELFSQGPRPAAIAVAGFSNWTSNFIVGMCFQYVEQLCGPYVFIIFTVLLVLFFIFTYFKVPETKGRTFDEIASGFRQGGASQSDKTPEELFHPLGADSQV
Property: IC50; scope: individual compounds
measurement-kind: IC50 (nM)

- Cc1c(NC(=O)c2cc(C(N)=O)nc3cc(F)c(Cl)cc23)c(C(F)(F)F)nn1Cc1ccc(OC(F)(F)F)cc1: 12.9
- Cc1nn(CC2CCOCC2)c(C)c1NC(=O)c1cc(C(F)(F)F)nc2cc(F)c(F)cc12: 2290
- CCc1c(NC(=O)c2cc(C(N)=O)nc3cccc(F)c23)c(C(F)(F)F)nn1Cc1ccc(C#N)cc1: 19.8
- Cc1nn(Cc2c(F)cc(F)cc2F)c(C)c1NC(=O)c1cc(C(F)(F)F)nc2c(Cl)cc(Cl)cc12: 66.7
- Cc1nn(Cc2ccc(C#N)cc2)c(C)c1NC(=O)c1cc(C(N)=O)nc2cc(F)cc(F)c12: 0.5
- Cc1c(NC(=O)c2cc(S(C)(=O)=NC#N)nc3ccccc23)c(C(F)(F)F)nn1Cc1ccc(C#N)cc1 (racemic): 43.2
- Cc1nn(Cc2ccc(C#N)cc2F)c(C)c1NC(=O)c1cc(C(N)=O)nc2cc(F)ccc12: 0.5
- COc1cc(C(=O)Nc2c(C)nn(Cc3cccnc3C#N)c2C)c2ccccc2n1: 136
- Cc1nn(Cc2ccc(OC(F)(F)F)cc2)c(C)c1NC(=O)c1cc(C(N)=O)nc2cc(F)ccc12: 8.7
- Cc1nn(Cc2ccc(C#N)cn2)c(C)c1NC(=O)c1cc(C(N)=O)nc2cc(F)ccc12: 9.3
- Cc1nn(Cc2c(F)cc(C#N)cc2F)c(C)c1NC(=O)c1cc(C(N)=O)nc2cccc(F)c12: 4.1
- Cc1nn(Cc2ccccc2C#N)c(C)c1NC(=O)c1cc(C(N)=O)nc2ccccc12: 7
- Cc1nn(Cc2ccc(C(=O)N(C)CCC#N)cc2)c(C)c1NC(=O)c1cc(C(F)(F)F)nc2ccc(Br)cc12: 161
- Cc1nn(Cc2ccc(C(=O)N3CCN(C)CC3)cc2)c(C)c1NC(=O)c1cc(C(F)(F)F)nc2ccc(Br)cc12: 598
- Cc1nn(Cc2cscn2)c(C)c1NC(=O)c1cc(C(F)(F)F)nc2ccc(Br)cc12: 134
